Reference source: the OPERA property sets (Mansouri et al. 2018)

Output met for logP not less than 1; output not met otherwise.

Confirm if logP reported for the compound CCC1(c2ccccc2)C(=O)NC(=O)N(C)C1=O (configuration not stated) is 1 or above.
met

What do you get for COc1cc(S(C)=O)ccc1-c1nc2ccncc2[nH]1 (configuration not stated) ?
met

For N#Cc1ccc(NC=O)cc1 then?
met

Lookup COc1ccc(OC)c(Cc2cnc3nc(N)nc(N)c3c2C)c1
met

One more compound: O=C(O)COc1ccc(F)cc1
met

// same read-out, input: NC(=O)Nc1cccc(Cl)c1
met

Also, NC(=O)Nc1cccc(F)c1 please.
met

Check COc1ccccc1N(C)C too.
met

Now try CCCCC(O)CC (configuration not stated) .
met

Repeat with Oc1cc(Cl)c(Cl)c(Cl)c1Cl
met

Repeat for the following compound: Cc1ccc2nc(N)[nH]c2c1
met

Check CC(=O)O[C@H]1C[C@H](O[C@H]2[C@@H](O)C[C@H](O[C@H]3[C@@H](O)C[C@H](O[C@H]4CC[C@@]5(C)[C@H](CC[C@@H]6[C@@H]5C[C@@H](O)[C@]5(C)[C@@H](C7=CC(=O)OC7)CC[C@]65O)C4)O[C@@H]3C)O[C@@H]2C)O[C@H](C)[C@H]1O[C@@H]1O[C@H](CO)[C@@H](O)[C@H](O)[C@H]1O too.
not met

Likewise for COc1ccc(C(c2ccc(OC)cc2)C(Cl)(Cl)Cl)cc1 ?
met

What do you get for CN(C)C(=O)Oc1ccccc1 ?
met

// query: O=C1C(F)=C(N2CC2)C(=O)C(N2CC2)=C1N1CC1
not met

Check COc1cc(S(C)=O)ccc1-c1cn2ccnc(OC)c2n1 (configuration not stated) too.
met

Same again, this time with NNC(=O)c1cccc(Cl)c1
met

Request: CCNCc1cccnc1
not met

Consider next the compound CCOP(=S)(OCC)Oc1nc(Cl)n(C(C)C)n1 in the same way.
met

Please do the same for ON=Cc1ccncc1 as well.
not met

Try this compound too: c1ccc2c(c1)CCc1ccccc1-2
met

Again, but for CC(CN(C)C)CN1c2ccccc2Sc2ccccc21 (configuration not stated)
met

Field entry: CCCOP(=O)(OCCC)Oc1ccc(SC)cc1
met

Likewise for N#Cc1cccc(N)c1 ?
met

Follow-up item: CN=C(O)Oc1cccc(C)c1
met

How about this compound: Nc1ccc(C(=O)O)cc1O
not met

Same again, this time with CCC(C)=O
not met
